# Tested on: L 1210 leukemia cells
# ASSAY PROTOCOL: In vitro cytostatic activity, colony formation (Hamburger and Salmon), continuous incubation
# Assay type: cell-based
# EXPERIMENTAL PARAMETERS: Mus musculus, L1210; L 1210, continuous incubation, 5 to 7 days at 37° C., colonies from 60 μm; carried out 4 times, deviation less than 15%; read-out: IC50, Strain test, continuous
QUANTITY NAME: IC50 (µg/mL)

MOLECULE: CC(=O)OC1CCC(OC23C(=O)CC(C)(O)CC2(O)C=CC2=C3C(=O)c3ccc(C4CC(OC5CCC(OC6CC(O)C(OC(C)=O)C(C)O6)C(C)O5)C(O)C(C)O4)c(O)c3C2=O)OC1C (stereo not drawn)
NUMERIC VALUE: 0.13
//
MOLECULE: CC(=O)OC1CC(OC2CCC(OC3CC(c4ccc5c(c4O)C(=O)C4=C(C5=O)C5(OC6CCC(O)C(C)O6)C(=O)CC(C)(O)CC5(O)C=C4)OC(C)C3O)OC2C)OC(C)C1O (stereo not drawn)
NUMERIC VALUE: 0.28
//
MOLECULE: CC(=O)OC1CCC(OC23C(=O)CC(C)(O)CC2(O)C=CC2=C3C(=O)c3ccc(C4CC(OC5CCC(OC6CC(OC(C)=O)C(OC(C)=O)C(C)O6)C(C)O5)C(OC(C)=O)C(C)O4)c(O)c3C2=O)OC1C (stereo not drawn)
NUMERIC VALUE: 0.078
//
MOLECULE: CC(=O)Oc1c(C2CC(OC3CCC(OC4CC(OC(C)=O)C(OC(C)=O)C(C)O4)C(C)O3)C(OC(C)=O)C(C)O2)ccc2c1C(=O)C1=C(C2=O)C2(OC3CCC(OC(C)=O)C(C)O3)C(=O)CC(C)(O)CC2(O)C=C1 (stereo not drawn) [Penta-O-acetylu. A, 5',3B,4B,4C,8-penta-O-acetylurdamycin A, reference compound]
NUMERIC VALUE: 0.042

[A] CC(=O)Oc1c(C2CC(OC3CCC(OC4CC(OC(C)=O)C(OC(C)=O)C(C)O4)C(C)O3)C(OC(C)=O)C(C)O2)ccc2c1C(=O)C1=C(C2=O)C2(OC3CCC(O)C(C)O3)C(=O)CC(C)(O)CC2(O)C=C1 (stereo not drawn)
[B] CC(=O)OC1CC(OC2CCC(OC3CC(c4ccc5c(c4O)C(=O)C4=C(C5=O)C5(OC6CCC(O)C(C)O6)C(=O)CC(C)(O)CC5(O)C=C4)OC(C)C3O)OC2C)OC(C)C1OC(C)=O (stereo not drawn)
Which item exceeds the other in IC50, A or B ? Answer format: the label of the selected item.
B
(B: 0.11 µg/mL, A: 0.075 µg/mL)

* * *

# System: L 1210 leukemia cells
# ASSAY PROTOCOL: In vitro cytostatic activity, colony formation (Hamburger and Salmon), 1-hour incubation
# Type: cell-based
# EXPERIMENTAL PARAMETERS: Mus musculus, L1210; L 1210, 1 hour incubation at 37° C., then washed and plated; carried out 4 times, deviation less than 15%; read-out: IC50, Strain test, 1 hour
QUANTITY NAME: IC50 (µg/mL)

[P] CC(=O)OC1CCC(OC23C(=O)CC(C)(O)CC2(O)C=CC2=C3C(=O)c3ccc(C4CC(OC5CCC(OC6CC(OC(C)=O)C(OC(C)=O)C(C)O6)C(C)O5)C(OC(C)=O)C(C)O4)c(O)c3C2=O)OC1C (centres unmarked)
[Q] CC(=O)OC1CCC(OC23C(=O)CC(C)(O)CC2(O)C=CC2=C3C(=O)c3ccc(C4CC(OC5CCC(OC6CC(O)C(OC(C)=O)C(C)O6)C(C)O5)C(O)C(C)O4)c(O)c3C2=O)OC1C (centres unmarked)
Problem: Given the entries P and Q , determine which has the lower reported IC50. Answer format: the label of the selected item.
P
(P: 0.25 µg/mL, Q: 0.85 µg/mL)

Cited source for all entries: patent US4939125A
